Assay: drug combination growth inhibition, ovarian cancer – cell-based, oncology-focused library, rucaparib conditional, profiling panel (AID 1508598)
Settings: patient-derived ovarian cancer cells, CellTiter-Glo viability, 144 h; at 0.0195 µM; OCI-C5x cells; without rucaparib
Activity calls are given as the source filed them.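 Rule for the calls: active = normalized viability below 100% at a tested concentration; inactive = the rest.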
Give your call using only these classes: Y (active), N (inactive)

Query: Would you mind telling me which call this test gave `CO[C@H]1C[C@@H]2CC[C@@H](C)[C@@](O)(O2)C(=O)C(=O)N2CCCC[C@H]2C(=O)O[C@H]([C@H](C)C[C@@H]2CC[C@@H](O)[C@H](OC)C2)CC(=O)[C@H](C)/C=C(\C)[C@@H](O)[C@H](OC)C(=O)[C@H](C)C[C@H](C)/C=C/C=C/C=C/1C` ?
Result: Y

Query: Would you mind telling me which call this test gave `CC(C)C[C@H](NP(=O)(O)O[C@@H]1O[C@@H](C)[C@H](O)[C@@H](O)[C@H]1O)C(=O)N[C@@H](Cc1c[nH]c2ccccc12)C(=O)O` ?
Result: N

Query: Would you mind telling me which call this test gave `COc1cccc2c1C(=O)c1c(O)c3c(c(O)c1C2=O)C[C@@](O)(C(=O)CO)C[C@H]3O[C@H]1C[C@H](N)[C@H](O)[C@H](C)O1` ?
Result: N

Query: Would you mind telling me which call this test gave `CC(=O)O[C@@]1(C(C)=O)CC[C@H]2[C@@H]3C=C(C)C4=CC(=O)CC[C@]4(C)[C@@H]3CC[C@@]21C` ?
Result: Y

Query: Would you mind telling me which call this test gave `NC(=O)CCCSc1nc(N)nc(-c2c(Cl)cc3c4c(cccc24)COC3)n1` ?
Result: N

Query: Would you mind telling me which call this test gave `CCC(C)(C)C(=O)O[C@@H]1C[C@@H](C)C=C2C=C[C@H](C)[C@@H](CC[C@@H]3C[C@@H](O)CC(=O)O3)[C@H]21` ?
Result: N

Query: Would you mind telling me which call this test gave `CC1(C)O[C@@H]2C[C@H]3[C@@H]4CCC5=CC(=O)C=C[C@]5(C)[C@]4(F)[C@H](O)C[C@]3(C)[C@@]2(C(=O)CO)O1` ?
Result: N

Query: Would you mind telling me which call this test gave `C[C@@H]1C[C@H]2[C@@H]3CCC4=CC(=O)C=C[C@]4(C)[C@]3(F)[C@H](O)C[C@]2(C)[C@]1(O)C(=O)CO` ?
Result: N

Query: Would you mind telling me which call this test gave `Cc1[nH]c(C=C2C(=O)Nc3ccc(S(=O)(=O)Cc4c(Cl)cccc4Cl)cc32)c(C)c1C(=O)N1CCC[C@@H]1CN1CCCC1` ?
Result: N

Query: Would you mind telling me which call this test gave `COc1cc(C(=O)NC2CCN(C)CC2)ccc1Nc1ncc2c(n1)N(C1CCCC1)CC(F)(F)C(=O)N2C` ?
Result: Y

Query: Would you mind telling me which call this test gave `C[C@]12CCC(=O)C=C1CC[C@@H]1[C@H]2[C@H](O)C[C@@]2(C)[C@H]1CC[C@@]2(O)C(=O)CO` ?
Result: N

Query: Would you mind telling me which call this test gave `Cc1cc(C)c(-c2csc(NC(=O)c3ccccc3)n2)c(C)c1` ?
Result: Y

Query: Would you mind telling me which call this test gave `O=C1[C@H](CC[C@H](O)c2ccc(F)cc2)[C@H](c2ccc(O)cc2)N1c1ccc(F)cc1` ?
Result: N

Query: Would you mind telling me which call this test gave `C[C@]12CC[C@H]3c4ccc(O)cc4CC[C@H]3[C@@H]1CCC2=O` ?
Result: N
